Target: SauBCA (β-carbonic anhydrase from Staphylococcus aureus) (Staphylococcus aureus, UniProt A0AAJ4SIE8)
Assay: Stopped-flow CO2 hydration inhibition assay, SauBCA
Type: biochemical
Details: Ki SauBCA, recombinant SauBCA, stopped-flow CO2 hydration, mean from three assays, errors ±5–10%
readoutLabel: pKi
Give bare numbers, as −log10 of the molar value.

Just so you know, measured pKi for Nc1ccc(S(N)(=O)=O)cc1 came out at 6.39

###

Could you please report measured pKi for the items listed next?
Target: UniProt A0AAJ4SIE8
Assay: Stopped-flow CO2 hydration inhibition assay, SauBCA
Type: biochemical
Settings: recombinant SauBCA, stopped-flow CO2 hydration, mean from three assays, errors ±5–10%; read-out: Ki SauBCA
Answers are plain numbers, as −log10 of the molar value.

smilesStructure	val
NCc1ccc(S(N)(=O)=O)cc1	6.71
NS(=O)(=O)c1ccc(CO)cc1	6.22
Nc1ccc(S(N)(=O)=O)cc1Br	7.12
Cc1ccc(S(N)(=O)=O)cc1	7.08
O=C1NS(=O)(=O)c2ccccc21	6.18

Proceed to the following item.
Bench note, UniProt A0AAJ4SIE8: NS(=O)(=O)NCCNc1nonc1C(=NO)Nc1ccc(F)c(Br)c1 , pKi reads 6.27

###

Biological target: SauBCA (β-carbonic anhydrase from Staphylococcus aureus) (Staphylococcus aureus)
Sequence (A0AAJ4SIE8 1-189): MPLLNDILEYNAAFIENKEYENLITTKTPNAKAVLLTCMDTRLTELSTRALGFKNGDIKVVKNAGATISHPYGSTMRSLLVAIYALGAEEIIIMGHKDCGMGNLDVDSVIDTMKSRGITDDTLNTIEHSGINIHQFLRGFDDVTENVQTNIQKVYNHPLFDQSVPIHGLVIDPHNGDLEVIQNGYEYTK
Experiment: Stopped-flow CO2 hydration inhibition assay, SauBCA
Assay type: biochemical
Details: recombinant SauBCA, stopped-flow CO2 hydration, mean from three assays, errors ±5–10%; read-out: Ki SauBCA
Could you please report measured pKi for the items listed next?
Give bare numbers, as −log10 of the molar value.

Example results:
molecule	pKi
Nc1ccc(S(=O)(=O)NCc2ccc(S(N)(=O)=O)cc2)cc1 [compound 23]	7.04
NS(=O)(=O)c1cccc(S(N)(=O)=O)c1 [compound 3]	7.02
NS(=O)(=O)c1ccc(CCNS(=O)(=O)c2ccc([N+](=O)[O-])cc2CO)cc1 [compound 21]	7.07
NS(=O)(=O)c1cc(Cl)cc(Cl)c1O [compound 10]	6.69
Nc1ccc(S(N)(=O)=O)cc1Cl [compound 8]	7.02
Nc1ccc(S(=O)(=O)Nc2nnc(S(N)(=O)=O)s2)cc1 [compound 20]	7.04
Nc1ccc(S(=O)(=O)NCCc2ccc(S(N)(=O)=O)cc2)cc1 [compound 24]	7.02
Nc1ccc(S(=O)(=O)Nc2ccc(S(N)(=O)=O)cc2)cc1 [compound 22]	7.08

Proceed to the following item.
Just so you know, measured pKi for Nc1nnc(S(N)(=O)=O)s1 [compound 13] came out at 6.38

Where do these numbers come from? They come from paper PMC7534311.
